For each of the compounds below, state its DC50.
# target.under.test: TYK2 (Homo sapiens, UniProt P29597)
# Construct: Degradation of TYK2 in cells was quantitatively measured using Meso Scale Discovery (MSD) technology; endogenous in cells; host or cells: OCI-LY10
# Sequence (P29597 whole entry): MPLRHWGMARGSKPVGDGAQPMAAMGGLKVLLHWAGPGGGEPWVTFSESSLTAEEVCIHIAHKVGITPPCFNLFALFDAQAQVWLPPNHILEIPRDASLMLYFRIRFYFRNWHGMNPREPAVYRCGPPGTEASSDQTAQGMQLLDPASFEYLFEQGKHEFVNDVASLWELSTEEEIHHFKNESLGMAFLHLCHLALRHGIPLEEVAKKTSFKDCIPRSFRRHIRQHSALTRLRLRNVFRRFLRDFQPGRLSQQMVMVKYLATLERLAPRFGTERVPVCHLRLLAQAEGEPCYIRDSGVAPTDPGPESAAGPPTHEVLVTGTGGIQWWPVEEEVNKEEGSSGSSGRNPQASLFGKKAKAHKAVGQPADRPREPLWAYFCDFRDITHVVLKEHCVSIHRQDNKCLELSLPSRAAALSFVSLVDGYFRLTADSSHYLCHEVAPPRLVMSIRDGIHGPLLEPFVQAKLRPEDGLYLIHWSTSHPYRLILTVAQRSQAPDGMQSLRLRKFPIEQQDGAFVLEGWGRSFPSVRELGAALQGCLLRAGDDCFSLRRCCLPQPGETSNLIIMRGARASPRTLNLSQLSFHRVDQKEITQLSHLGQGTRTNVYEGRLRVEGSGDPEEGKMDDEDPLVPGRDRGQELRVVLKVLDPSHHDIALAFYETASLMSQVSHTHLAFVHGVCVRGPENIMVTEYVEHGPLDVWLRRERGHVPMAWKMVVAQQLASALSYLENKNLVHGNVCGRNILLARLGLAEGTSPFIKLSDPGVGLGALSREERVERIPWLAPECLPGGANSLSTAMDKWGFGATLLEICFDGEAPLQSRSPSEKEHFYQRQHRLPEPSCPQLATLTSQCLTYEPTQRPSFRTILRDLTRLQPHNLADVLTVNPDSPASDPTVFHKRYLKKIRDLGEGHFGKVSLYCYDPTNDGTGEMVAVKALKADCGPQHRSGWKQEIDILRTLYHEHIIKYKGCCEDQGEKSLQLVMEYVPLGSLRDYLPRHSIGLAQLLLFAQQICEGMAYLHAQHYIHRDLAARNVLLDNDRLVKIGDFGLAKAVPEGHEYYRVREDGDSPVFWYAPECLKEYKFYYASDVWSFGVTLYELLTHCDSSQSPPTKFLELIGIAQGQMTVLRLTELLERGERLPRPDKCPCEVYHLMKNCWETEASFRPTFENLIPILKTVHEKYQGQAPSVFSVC
# protocol.text: TYK2 MSD degradation in OCI-LY10 cells
# Assay type: cell-based
# experimental.setup: OCI-LY10 cells, 4 to 24 hours incubation, read-out: TYK2 MSD OCI-LY10 Rel-DC50

CNc1cc(N2CCc3c(CN4CCC(CN5CCC(N(C)c6ccc(Cl)c(N7CCC(=O)NC7=O)c6)CC5)C(F)(F)C4)cccc32)nn2c(C(=O)N[C@@H]3C[C@@H]3F)cnc12 (stereo partly shown) [I-751]: < 10 nM
CNc1cc(N2CCc3c2ccc(C)c3CN2CCC(N3CCC4(CCN(C(=O)c5ccc(Cl)c(N6CCC(=O)NC6=O)c5)CC4)CC3)C(F)(F)C2)nn2c(C(=O)N[C@@H]3C[C@@H]3F)cnc12 (stereo partly shown) [I-755]: 10 to 100 nM
CNc1cc(N2CCc3c(-c4ncc(CN5CC6(CCN(C(=O)c7cc(C)c(Cl)c(N8CCC(=O)NC8=O)c7)CC6(F)F)C5)cc4C)cccc32)nn2c(C(=O)N[C@@H]3C[C@@H]3F)cnc12 [I-756]: < 10 nM

Provide reported DC50 for each item, in the same order as listed.
1. CNc1cc(N2CCc3c(CN4CCC(N5CCC6(CCN(C(=O)c7cc(Cl)c(C)c(N8CCC(=O)NC8=O)c7)CC6)CC5)C(F)(F)C4)cccc32)nn2c(C(=O)N[C@@H]3C[C@@H]3F)cnc12 (stereo partly shown) [I-711]
2. CNc1cc(N2CCc3c(C#CCN4CCC(N5CCC6(CC5)CN(C(=O)c5ccc(Cl)c(N7CCC(=O)NC7=O)c5)C6)C(F)(F)C4)cccc32)nn2c(C(=O)N[C@@H]3C[C@@H]3F)cnc12 (stereo partly shown) [I-702]
3. CNc1cc(N2CCc3c(CC4CCN(C5CCC6(CC5)CCN(C(=O)c5ccc(Cl)c(N7CCC(=O)NC7=O)c5)CC6)CC4(F)F)cccc32)nn2c(C(=O)N[C@@H]3C[C@@H]3F)cnc12 (stereo partly shown) [I-686]
4. CNc1cc(N2CCc3c(-c4ccc(CN5CCN(CCC6CCN(c7ccc(Cl)c(C8CCC(=O)NC8=O)c7)CC6)CC5)cn4)cccc32)nn2c(C(=O)NC3CC3F)cnc12 (mixture of isomers) [I-438]
5. CNc1cc(N2CCc3c(CN4CCC(N5CCC6(CCN(C(=O)c7cc(N8CCC(=O)NC8=O)c(Cl)cc7C)CC6)CC5)C(F)(F)C4)cccc32)nn2c(C(=O)N[C@@H]3C[C@@H]3F)cnc12 (stereo partly shown) [I-765]

["< 10 nM", "< 1 nM", "< 10 nM", "< 10 nM", "< 10 nM"]

Provide reported DC50 for each item, in the same order as listed.
1. CNc1cc(N2CCc3c(-c4cc(CN5CCN(CCc6ccc(Cl)c(C7CCC(=O)NC7=O)c6)CC5)ccn4)cccc32)nn2c(C(=O)NC3CC3F)cnc12 (stereo not shown) [I-395]
2. CNc1cc(N2CCc3c(-c4cnc(CC5CC6(CCN(C(=O)c7cc(C)c(Cl)c(N8CCC(=O)NC8=O)c7)CC6)C5)cn4)cccc32)nn2c(C(=O)N[C@@H]3C[C@@H]3F)cnc12 [I-760]

["> 100 nM", "< 10 nM"]
